# method: small-molecule microarray binders of probe aNog, primary screen, biochemical, biotinylated probe, 635/667 nm fluorescence (AID 1115);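 note: probe is biotinylated aNog protein used at 0.15 µg/mL for 1 h at 4 C; z-score combines 667 nm fluorescence of each spot with its signal to noise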
# condition.summary: higher = more signal
Classes (composite z-score): low = under -0.2, mid = from -0.2 up to 0.3, high = 0.3 and over

{"molecule": "O=C1C2C=CC(C(O)c3ccc(F)cc3)N(Nc3ccccc3F)C2C(=O)N1c1ccccc1 (stereo unspecified)", "cat": "high"}
{"molecule": "C#CCN(CC1=CCCCC1)[C@H](c1ccccc1Br)[C@@H](O)Cc1ccccc1", "cat": "low"}
{"molecule": "O=C1C2C=CC(C(O)C3CCCCC3)N(Nc3ccc([N+](=O)[O-])cc3)C2C(=O)N1c1ccccc1 (stereo unspecified)", "cat": "mid"}
{"molecule": "COc1ccc(C(O)C2C=CC3C(=O)N(c4ccccc4)C(=O)C3N2Nc2ccccc2F)cc1OCc1ccccc1 (stereo unspecified)", "cat": "mid"}
{"molecule": "COC(=O)[C@@]1(Cc2ccc(F)cc2)[C@@H]2[C@@H](CC(=O)[C@H]2CC(=O)C(=O)N(C)C)CN1C(=O)c1ccccc1", "cat": "high"}
{"molecule": "CCCN1C(=O)[C@]2(CCS(=O)(=O)c3ccccc3)N=C(c3ccc(OCCCO)cc3)O[C@@H]2c2ccccc21", "cat": "mid"}

Incoming: Place this molecule in its band: CC(C)C[C@@H]1NC(=O)[C@H]2C[C@@H](C(=O)NCCCCCCN(C)C)[C@@H](c3ccc(O)cc3)N2C1=O
Outgoing: low

Incoming: Place this molecule in its band: [N-]=[N+]=Nc1ccccc1[C@H]1OC(c2ccc(OCCCO)cc2)=N[C@@]1(Cc1ccccc1)C(=O)O
Outgoing: mid

Incoming: Place this molecule in its band: CCCC[C@@H]1C[C@H]1[C@@H](NC(=O)c1ccco1)c1ccc(Cl)cc1
Outgoing: high

Incoming: Place this molecule in its band: CC1CC/C=C\[C@H]2OC34C=CCN(c5ccc(Cl)cc5)C(=O)[C@H]3N(CCO)C(=O)[C@]4(C)C2C(=O)O1 (stereo partly specified)
Outgoing: low

Incoming: Place this molecule in its band: COCCCN1C(=O)[C@@]2(c3ccc([N+](=O)[O-])cc3)CC(=O)N(C3CCCCC3)[C@@H]2c2ccc(CO)cc21
Outgoing: high

Incoming: Place this molecule in its band: C=CCC(OC(C)=O)[C@@H]1[C@@H](N(Cc2ccc(-c3cccc(C(F)(F)F)c3)o2)C(=O)Cc2ccc(F)cc2)c2cc(OCCCO)ccc2N1C(=O)Cc1ccc(OC)cc1 (stereo partly specified)
Outgoing: low

---

# target.entity: Fibroblast growth factor 2 (Homo sapiens)
# method: FGF2 binders on small-molecule microarrays, primary screen, biochemical, small-molecule microarray, 635/667 nm fluorescence (AID 1133)
# condition.summary: small-molecule microarray binding, FGF2, fluorescence 635/667; higher = more signal
reported.endpoint: composite z-score
Answer with a bare number; do not write a unit.

Recorded composite z-score, per entry:
{"smiles.string": "CN(C)C(=O)[C@]1(Cc2ccccc2N=[N+]=[N-])N=C(c2ccc(OCCCO)cc2)O[C@@H]1c1ccccc1", "reported.endpoint": "composite z-score", "observed": 1.58}
{"smiles.string": "COc1ccc(C#Cc2ccc3c(c2)[C@]2(C(=O)N3)[C@H](c3ccccc3OCCO)N3[C@H](c4ccccc4)[C@H](c4ccccc4)OC(=O)[C@H]3[C@@H]2C(=O)O)cc1", "reported.endpoint": "composite z-score", "observed": 0.314}

Now let's try a different one.
Incoming: Under Fibroblast growth factor 2 (Homo sapiens): composite z-score value of C=CCNC(=O)[C@H]1[C@@H]2C(=O)O[C@@H](c3ccccc3)[C@@H](c3ccccc3)N2[C@@H](c2ccc(OCCO)cc2)[C@]12C(=O)Nc1ccc(C#CC3=CCCCC3)cc12 ?
Outgoing: 0.553
